Target: T1, Full length mouse CD98hc on CHO cells (mouse, UniProt P10852 1-526)
T1 construct: CHO cells stably overexpressing it; also called CHO-mouse CD98hc; CHO-mCD98hc
T1 sequence: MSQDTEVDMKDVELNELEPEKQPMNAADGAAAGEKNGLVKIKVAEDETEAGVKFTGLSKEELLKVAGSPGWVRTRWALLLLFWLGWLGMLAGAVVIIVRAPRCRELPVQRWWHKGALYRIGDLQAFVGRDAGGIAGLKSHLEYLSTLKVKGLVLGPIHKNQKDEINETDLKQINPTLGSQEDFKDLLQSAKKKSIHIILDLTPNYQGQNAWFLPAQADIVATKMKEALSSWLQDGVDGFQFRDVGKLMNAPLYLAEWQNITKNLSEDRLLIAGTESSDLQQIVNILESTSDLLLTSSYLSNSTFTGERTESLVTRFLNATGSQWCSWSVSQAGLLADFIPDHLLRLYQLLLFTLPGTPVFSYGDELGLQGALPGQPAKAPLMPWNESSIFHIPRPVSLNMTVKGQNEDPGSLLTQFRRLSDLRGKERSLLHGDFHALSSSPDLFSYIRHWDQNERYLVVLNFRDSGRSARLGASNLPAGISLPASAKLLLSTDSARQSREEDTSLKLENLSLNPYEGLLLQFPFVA
Experiment: FACS, hybridoma supernatant
measured-metric: binding result

{"binder": "CD98HC.04.011 (antibody, V domains shown, hybridoma IgG) VH: DVQLQESGPDLVKPSQSLSLTCSVTVYSFTSVYSWHWIRQFPGNKLEWMGYIHDSGTTNYNPSLKSRISVTRDTSKNQFFLQLNSVTTEDTATYYCARGRPYGYDGFAYWGQGTLVTVSA VL: DIQMTQSSSYLSVSLGDRVTITCKASDHINNWLAWYQQKPGNAPRLLITGAVNLETGVPSRFSGSGSGKDYTLSITSLQTEDVATYYCQQYWSIPRTFGGGTNLEIK", "result": "no binding"}
{"binder": "CD98HC.04.013 (antibody, V domains shown, hybridoma IgG) VH: EVQLVESGGDLGMPGGSLKLSCAASGFALSGYDMSWVRQTPDKRLEWVAYLSSGGGSTYYPYTVKGRFTISRDNAQNTLYLQMSSLKSEDTAIYYCARHSEVRPWFGYWGQGTLVTVSA VL: DIVMSQSPSSLAVSVGEKVTLTCKSSQSLLYSGNQKNYLAWYQQNPGQSPKLLIYWASTRESGVPDRFTGSGSGTDFTLTISSVKAEDLAVYYCQQYYTYPPTFGAGTKLGLK", "result": "no binding"}
